B1: POU domain, class 4, transcription factor 1, residues 266 to 347; numbered along this chain, Q01851 (parent)
chain: RELEAFAERFKQRRIKLGVTQADVGSALANLKIPGVGSLSQSTICRFESLTLSHNNMIALKPILQAWLEEAEGAQREKMNKP

- Variants of: B1
- Test Summary: abundance fitness (aPCA) (normalised: wild type 0, dead -1); higher = more abundant; growth selection in yeast, the domain comes from the species named
- Conditions Used: Homo sapiens
Recorded Endpoint: abundance fitness
Number only, please.

The examples below pair each entry with its known result.
RELEAFAERFKQRRIKLGVTQADVGSALANLKIPGVGSLSQSTICRFVSLTLSHNNMIALKPILQAWLEEAEGAQREKMNKP ... -1.04
RELEAFAERFKQRRIKLGVTIADVGSALANLKIPGVGSLSQSTICRFESLTLSHNNMIALKPILQAWLEEAEGAQREKMNKP ... 0.022
RELEAFAERFKQRRIKLGVTQADVGSALANLIIPGVGSLSQSTICRFESLTLSHNNMIALKPILQAWLEEAEGAQREKMNKP ... -0.165
RELEAFAERFKQRRIKLGVTQADVGSALANLRIPGVGSLSQSTICRFESLTLSHNNMIALKPILQAWLEEAEGAQREKMNKP ... -0.058
RELEAFAERFKQWRIKLGVTQADVGSALANLKIPGVGSLSQSTICRFESLTLSHNNMIALKPILQAWLEEAEGAQREKMNKP ... -0.321
RELEAFDERFKQRRIKLGVTQADVGSALANLKIPGVGSLSQSTICRFESLTLSHNNMIALKPILQAWLEEAEGAQREKMNKP ... -1.11
RELEAFAHRFKQRRIKLGVTQADVGSALANLKIPGVGSLSQSTICRFESLTLSHNNMIALKPILQAWLEEAEGAQREKMNKP ... -0.164
RELEAFAERFKQRRIKLGSTQADVGSALANLKIPGVGSLSQSTICRFESLTLSHNNMIALKPILQAWLEEAEGAQREKMNKP ... -0.062
RELEAFAERFKQRRIKLGVTQADVGSALANLKIPGVGSLSQSTICRFESLTLSHNNMIALKPILQAWLEEAEYAQREKMNKP ... 0.144
RELEAFAERFKQRRIKLGVTVADVGSALANLKIPGVGSLSQSTICRFESLTLSHNNMIALKPILQAWLEEAEGAQREKMNKP ... -0.083

Entry RELEAFAERFKQRRIKLGVTQADVGSALANCKIPGVGSLSQSTICRFESLTLSHNNMIALKPILQAWLEEAEGAQREKMNKP : reported abundance fitness = ? -0.057

Origin of the recorded values: the Human Domainome abundance scans (Beltran et al. 2025)
